Ki for 5-hydroxytryptamine receptor 6 (Homo sapiens, UniProt P50406) - collated from the literature.

Illustrative cases are given below, each with its answer.
COc1ccc(S(=O)(=O)c2n[nH]c3ccc(OC4CCNCC4)cc23)cc1 | > 45 nM
COc1cc(OCCN2CCCCC2)c2[nH]nc(S(=O)(=O)c3cccc4ccccc34)c2c1 | 0.01 to 10 nM
O=S(=O)(c1ccccc1)c1n[nH]c2ccc(OC3CCNCC3)cc12 | 11 to 25 nM
COc1ccc(NS(=O)(=O)c2c(C)sc3ccc(Cl)cc23)cc1N1CCNCC1 | < 10 nM
O=S(=O)(c1cccc2ccccc12)c1n[nH]c2ccc(CCCN3CCCC3)cc12 | 0.01 to 10 nM

Lab note: need Ki with 5-hydroxytryptamine receptor 6 (Homo sapiens, UniProt P50406) for entry `O=S(=O)(c1ccc2ccccc2c1)c1n[nH]c2ccc(NC3CCNCC3)cc12` , please look it up. 0.01 to 10 nM

Hi! What's the reported Ki for `COc1ccc(OC)c(S(=O)(=O)Nc2cccc(C3CNC3)c2)c1` on 5-hydroxytryptamine receptor 6 (Homo sapiens, UniProt P50406)? 1 to 10 nM

// fetch 5-hydroxytryptamine receptor 6 (Homo sapiens, UniProt P50406) Ki for `O=S(=O)(c1cccc2ccccc12)c1n[nH]c2cc(OCCN3CCCCC3)ccc12` > 45 nM

Quick check: Ki on 5-hydroxytryptamine receptor 6 (Homo sapiens, UniProt P50406), item `CNCCOc1cccc2c(S(=O)(=O)c3ccccc3)nn(Cc3cccc(Cl)c3)c12` ? 11 to 25 nM

Hello, I am looking for reported Ki with 5-hydroxytryptamine receptor 6 (Homo sapiens, UniProt P50406) for `CCN(CC)CCOc1cc(F)cc2c(S(=O)(=O)c3cccc4ccccc34)n[nH]c12` . Could you help? 11 to 25 nM

====

pKi: −log10 of the molar value.
Ok so here's the combined literature set: pKi for 5-hydroxytryptamine receptor 6 (Homo sapiens, UniProt P50406).

These recorded examples may help you get a feel for the data.
CNCCOc1ccc2[nH]nc(S(=O)(=O)c3cccc4ccccc34)c2c1 | 8.00 to 11.00
CCCN1CC(c2ccc(NS(=O)(=O)c3cc(Cl)sc3Cl)cc2)C1 | 6.82 to 7.30
CC(C)NCCOc1ccc2[nH]nc(S(=O)(=O)c3cccc4ccccc34)c2c1 | 8.00 to 11.00

Which measured pKi belongs to `CCN(C)CCOc1ccc2c(c1)c(S(=O)(=O)c1cccc3ccccc13)nn2Cc1ccccc1` , tested on 5-hydroxytryptamine receptor 6 (Homo sapiens, UniProt P50406)? 7.46 to 7.59

Give pKi (5-hydroxytryptamine receptor 6 (Homo sapiens, UniProt P50406)) of the following compound: O=S(=O)(c1cccc(Cl)c1)n1cc(C2CCCNC2)c2cccnc21 (stereo not drawn) 8.22

Form field: pKi recorded for `O=S(=O)(c1ccc2c(c1)CNCC2)n1ccc2cc(F)c(F)cc21` with 5-hydroxytryptamine receptor 6 (Homo sapiens, UniProt P50406) (enter value) 8.20 to 8.90

Missing value: pKi, 5-hydroxytryptamine receptor 6 (Homo sapiens, UniProt P50406), entry `O=S(=O)(Nc1cccc(C2CNC2)c1)c1cc(C(F)(F)F)cc(C(F)(F)F)c1` . Fill in? 7.30 to 8.00

Hi! What's the reported pKi for O=S(=O)(c1ccc(Cl)c(Cl)c1)n1cc(C2CCN(Cc3ccccc3)C2)c2ccccc21 (stereo not drawn) on 5-hydroxytryptamine receptor 6 (Homo sapiens, UniProt P50406)? 7.82

Quick check: pKi on 5-hydroxytryptamine receptor 6 (Homo sapiens, UniProt P50406), item `CNCCOc1ccc2[nH]nc(S(=O)(=O)c3ccccc3)c2c1` ? 7.60 to 7.96

Which pKi is reported with 5-hydroxytryptamine receptor 6 (Homo sapiens, UniProt P50406) for this entry: `O=S(=O)(c1ccccc1)c1n[nH]c2ccc(OCCNC3CC3)cc12` ? 7.46 to 7.59

So what pKi did `O=S(=O)(c1cccc2ccccc12)c1nn(Cc2cccc(Cl)c2)c2ccc(OCCN3CCCC3)cc12` get with 5-hydroxytryptamine receptor 6 (Homo sapiens, UniProt P50406)? 7.46 to 7.59

Form field - read-out: pKi; system: 5-hydroxytryptamine receptor 6 (Homo sapiens, UniProt P50406); submitted item: `CCCN1CC[C@@H](c2ccc(NS(=O)(=O)c3cccc(Br)c3)cc2)C1` 8.00 to 9.00

Param readout= pKi; system= 5-hydroxytryptamine receptor 6 (Homo sapiens, UniProt P50406); entry= `CCCCNCCOc1ccc2[nH]nc(S(=O)(=O)c3cccc4ccccc34)c2c1` ; returns value. 8.00 to 11.00

Recall the recorded pKi for `CCCN1CC(c2ccc(NS(=O)(=O)c3ccc(F)c(Cl)c3)cc2)C1` with 5-hydroxytryptamine receptor 6 (Homo sapiens, UniProt P50406) and state it. 6.82 to 7.30

# value lookup — system 5-hydroxytryptamine receptor 6 (Homo sapiens, UniProt P50406), readout pKi, item `COc1ccc(C)cc1S(=O)(=O)Nc1cccc(C2CNC2)c1` 8.00 to 9.00

Short answer please: pKi, 5-hydroxytryptamine receptor 6 (Homo sapiens, UniProt P50406), entry `O=S(=O)(c1ccc(C(F)(F)F)cc1)c1n[nH]c2ccc(NC3CCNCC3)cc12` 8.00 to 11.00

Please tell me: pKi of `O=S(=O)(c1ccccc1)c1n[nH]c2ccc(OCCNC3CCCC3)cc12` , system 5-hydroxytryptamine receptor 6 (Homo sapiens, UniProt P50406)? 7.60 to 7.96

Lab note: need pKi for `CCN(C)CCOc1ccc2c(c1)c(S(=O)(=O)c1cccc3ccccc13)nn2C` on 5-hydroxytryptamine receptor 6 (Homo sapiens, UniProt P50406), anyone have it? 8.00 to 11.00
